Target: T1, GST-DDB1 (UniProt Q16531 1-1140)
T1 construct: also called glutathione S-transferase (GST)-DDB1; not shown: GST, N-terminal, kept
T1 sequence (Q16531 whole entry): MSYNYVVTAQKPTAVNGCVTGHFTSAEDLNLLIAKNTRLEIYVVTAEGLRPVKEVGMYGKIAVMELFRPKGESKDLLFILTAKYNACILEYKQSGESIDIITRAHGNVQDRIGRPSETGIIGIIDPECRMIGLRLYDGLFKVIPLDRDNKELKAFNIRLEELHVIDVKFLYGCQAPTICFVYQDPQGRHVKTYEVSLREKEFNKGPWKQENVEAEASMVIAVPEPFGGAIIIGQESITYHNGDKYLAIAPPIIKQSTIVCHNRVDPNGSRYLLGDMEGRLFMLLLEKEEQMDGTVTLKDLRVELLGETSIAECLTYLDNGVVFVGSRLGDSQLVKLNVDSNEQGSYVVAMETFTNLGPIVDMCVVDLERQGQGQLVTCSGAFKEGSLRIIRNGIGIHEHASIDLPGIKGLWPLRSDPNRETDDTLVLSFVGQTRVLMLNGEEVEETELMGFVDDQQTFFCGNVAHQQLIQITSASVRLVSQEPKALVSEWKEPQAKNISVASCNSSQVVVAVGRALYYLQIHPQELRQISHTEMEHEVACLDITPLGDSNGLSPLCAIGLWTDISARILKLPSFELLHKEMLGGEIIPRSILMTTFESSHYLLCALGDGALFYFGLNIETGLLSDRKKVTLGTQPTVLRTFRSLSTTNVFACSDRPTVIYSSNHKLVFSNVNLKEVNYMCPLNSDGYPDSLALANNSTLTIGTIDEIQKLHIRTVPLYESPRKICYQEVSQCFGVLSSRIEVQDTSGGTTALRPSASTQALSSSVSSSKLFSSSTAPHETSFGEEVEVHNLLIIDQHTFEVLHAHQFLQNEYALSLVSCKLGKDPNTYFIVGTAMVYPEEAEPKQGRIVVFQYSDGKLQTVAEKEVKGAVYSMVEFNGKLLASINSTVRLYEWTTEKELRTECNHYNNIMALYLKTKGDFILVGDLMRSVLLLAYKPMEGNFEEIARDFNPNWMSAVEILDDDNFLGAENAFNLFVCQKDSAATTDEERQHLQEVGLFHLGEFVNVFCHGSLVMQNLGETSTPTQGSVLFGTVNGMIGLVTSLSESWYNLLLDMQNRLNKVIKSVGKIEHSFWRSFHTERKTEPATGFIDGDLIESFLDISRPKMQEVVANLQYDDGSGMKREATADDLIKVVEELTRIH
Assay: AlphaScreen or HTRF; TR-FRET competition; 5 nM His-HBx and 5 nM GST-DDB1 expressed separately, preincubated with increasing untagged competitor 30 min at room temperature; Eu-cryptate anti-His and d2 anti-GST antibodies; 25 mM HEPES pH 7.2, 400 mM NaCl, 0.1 mg/ml BSA, 0.01% Brij-35, 0.5 mM TCEP
Conditions: both partners purified
pIC50: −log10 of the molar value.
List of pIC50 values.
ASSAY METRIC: pIC50

1) ILPKVLHKRTLGLSA [HBx H-box peptide (wild type)] = 5.30
2) SV5-V (natural protein, also called V protein of paramyxovirus SV5; source: E. coli Rosetta, purified (glutathione agarose, thrombin cleavage, MonoQ, Superdex 75); not shown: GST, N-terminal, cleaved) MDPTDLSFSPDEINKLIETGLNTVEYFTSQQVTGTSSLGKNTIPPGVTGLLTNAAEAKIQESTNHQKGSVGGGAKPKKPRPKIAIVPADDKTVPGKPIPNPLLGLDSTPSTQTVLDLSGKTLPSGSYKGVKLAKFGKENLMTRFIEEPRENPIATSSPIDFKRGRDTGGFHRREYSIGWVGDEVKVTEWCNPSCSPITAAARRFECTCHQCPVTCSECERDT = 8.15
